B1: NP_116010.1 (parent)
chain: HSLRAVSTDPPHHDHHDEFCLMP

# Variants of: B1
# Run Description: protein stability index of a GFP-peptide fusion (GPS, HEK-293T) (PSI 1-6); higher = more stable;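 note: lentivirally expressed fusion library, cells FACS-sorted into six equal-sized GFP/DsRed ratio bins, PSI computed from sequencing read fractions per bin weighted by bin number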
# Condition Details: c terminus: native
Quantity Kind: protein stability index
I'd appreciate a reply containing only the number, no unit.

Examples with their reported protein stability index follow.
In [3]: df
Out[3]:
   sequence_change  observed_value
0              L3M            2.43
1             P23C            3.58
2              D9M            2.23

In: Tell me protein stability index reported for A5G
Out: 3.03
